measured.target: T1, HCoV-OC43-N protein (HCoV-OC43, UniProt P33469 1-448)
T1 construct: also called OC43-CoV N
T1 chain: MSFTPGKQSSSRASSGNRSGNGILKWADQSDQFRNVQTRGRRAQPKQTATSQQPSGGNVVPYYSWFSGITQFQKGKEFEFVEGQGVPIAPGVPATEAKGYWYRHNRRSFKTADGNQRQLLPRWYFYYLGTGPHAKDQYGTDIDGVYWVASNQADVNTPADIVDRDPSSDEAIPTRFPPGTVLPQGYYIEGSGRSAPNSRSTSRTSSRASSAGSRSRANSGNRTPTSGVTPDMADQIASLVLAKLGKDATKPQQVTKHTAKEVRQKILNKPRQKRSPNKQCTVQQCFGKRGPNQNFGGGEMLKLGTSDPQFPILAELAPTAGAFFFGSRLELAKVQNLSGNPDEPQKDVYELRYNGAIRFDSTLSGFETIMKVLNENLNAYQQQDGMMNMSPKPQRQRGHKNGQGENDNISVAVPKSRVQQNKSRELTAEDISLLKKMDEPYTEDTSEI
assay.details: ELISA, IgG1 on recombinant N protein
Overview of recorded EC50 for various binders

INSERT INTO assay_data (binder, measured_property, observed_value) VALUES
  ('antibody #21 (antibody, V domains shown, also called D21) VH: EVQLVESGGGLVQPGGSLRLSCAASGFTINNGSIHWVRQAPGKGLEWVAWIWPFGGYTYYADSVKGRFTISADTSKNTAYLQMNSLRAEDTAVYYCARGSYGYDYWGQGTLVTVSS VL: DIQMTQSPSSLSASVGDRVTITCRASQDVGSNVAWYQQKPGKAPKLLIFSAPFLYSGVPSRFSGSGSGTDFTLTISSLQPEDFATYYCQQFYDWPLTFGQGTKVEIKR', 'EC50', '> 2 µg/mL');

We now examine a further binder.
What value of measured EC50 is listed for antibody #7 (antibody, V domains shown, also called C07) VH: EVQLVESGGGLVQPGGSLRLSCAASGFTIEDRWIHWVRQAPGKGLEWVASIWPMEGLTRYADSVKGRFTISADTSKNTAYLQMNSLRAEDTAVYYCARGYYGFDYWGQGTLVTVSS VL: DIQMTQSPSSLSASVGDRVTITCRASQDVEARVAWYQQKPGKAPKLLIFTSTRLYSGVPSRFSGSGSGTDFTLTISSLQPEDFATYYCQQIMPLPTTFGQGTKVEIKR ? > 2 µg/mL
